- Test system: BT-549 breast
- EXPERIMENT SUMMARY: NCI tumour cell line growth inhibition, 48 h
Exercise: state measured TGI for each of the molecules provided.

What value of TGI has been reported for the following molecule? CCSCCC(N)C(=O)O (stereo unspecified)
> 100 µM

What value of TGI has been reported for the following molecule? COc1cccc(N=Cc2cc3cc(Br)ccc3nc2Cl)c1
> 50 µM

What value of TGI has been reported for the following molecule? CC(=O)N1C(c2[nH]c3ccccc3c2-c2ccccc2)CCN1c1ccccc1 (stereo unspecified)
> 10 µM

What value of TGI has been reported for the following molecule? COc1cccc(-c2c(C#N)c(N)nc3c2CCS(=O)(=O)c2ccc(C)cc2-3)c1
> 100 µM

What value of TGI has been reported for the following molecule? CC(C)(Br)C(Br)CCC(C)(Br)C(Br)CO (stereo unspecified)
> 10 µM

What value of TGI has been reported for the following molecule? N#CC12C(=O)N3C(=NC(c4ccccc4)NC3c3ccccc3)C1(C#N)C(c1ccccc1)NC1=C2CCC1 (stereo unspecified)
> 100 µM

What value of TGI has been reported for the following molecule? NC(=O)N/N=C1\CCCCc2ccccc21
> 10 µM

What value of TGI has been reported for the following molecule? NCCn1c(=O)[nH]c(=O)[nH]c1=S
> 100 µM

What value of TGI has been reported for the following molecule? [N-]=[N+]=Nc1c(C=O)c(=O)n2c3c(cccc13)CCC2
6.07 µM

What value of TGI has been reported for the following molecule? CCCCCCCCCCC(C(=O)O)C1(C(=O)O)CCC(=O)O1 (stereo unspecified)
> 100 µM

What value of TGI has been reported for the following molecule? CCCCCCCCN=C(N)c1ccc(N2CCN(c3ccc(C(N)=NCCCCCCCC)cc3)CC2)cc1
3.82 µM

What value of TGI has been reported for the following molecule? NC(=O)N=C(N(Cc1ccccc1)Cc1ccccc1)N(Cc1ccccc1)Cc1ccccc1
> 100 µM

What value of TGI has been reported for the following molecule? CCC1C(C#N)=C(N)OC2=C1C(=O)CC(C)(C)C2 (stereo unspecified)
> 100 µM

What value of TGI has been reported for the following molecule? COc1ccc2nc(-n3c(/C=C/c4ccccc4O)nc4ccccc4c3=O)sc2c1
> 100 µM

What value of TGI has been reported for the following molecule? O=C1C(Cl)=C(OCCCCl)C(=O)c2c(O)ccc(O)c21
3.86 µM

What value of TGI has been reported for the following molecule? C=CC/C=C/Cc1csc(C(C)(C)C(O)C/C=C/C(=C)CCNC(=O)OC)n1 (stereo unspecified)
> 100 µM

What value of TGI has been reported for the following molecule? CC(=O)OCOC(=O)CN(CC(=O)OCOC(C)=O)Cc1cc2c(cc1OC(C)=O)Oc1cc(OC(C)=O)c(CN(CC(=O)OCOC(C)=O)CC(=O)OCOC(C)=O)cc1C21OC(=O)c2ccccc21
1.16 µM

What value of TGI has been reported for the following molecule? O=C(/C=C(\O)c1ccccc1)C(=O)NNc1ccc([N+](=O)[O-])cc1[N+](=O)[O-]
48.2 µM

What value of TGI has been reported for the following molecule? O=C1/C(=C\c2c[nH]c3ccccc23)c2ccccc2N1c1c(Cl)cccc1Cl
4.07 µM

What value of TGI has been reported for the following molecule? CCOC(=O)CSc1nc(N)c2c(-c3ccc(OC)c(OC)c3)c3c(nc2n1)CCCC3
> 100 µM

What value of TGI has been reported for the following molecule? N#Cc1c(N2CCCC2)[nH]c(=O)c(C(c2c(Cl)cccc2Cl)c2c(O)c(C#N)c(N3CCCC3)[nH]c2=O)c1O
6.25 µM

What value of TGI has been reported for the following molecule? CC#C[C@]1(O)CC[C@H]2[C@@H]3CCC4=CC(=O)CCC4=C3[C@@H](c3ccc4c(c3)OCO4)C[C@@]21C
122 µM

What value of TGI has been reported for the following molecule? CC[C@H]1C=CCC[C@@]2(C[C@@H]3CC[C@@H]4[C@H](C(=O)OCCCCCCCCCCCCCCCC(=O)O)[C@]5(CCC[C@@H](C)O5)NC(=[N+]34)N2)O1
6.9 µM

What value of TGI has been reported for the following molecule? CCCNC(=O)c1cc(NC(=O)c2cc(NC(=O)/C=C/c3ccccc3)c(OC)c(OC)c2)c(OC)c(OC)c1
53.4 µM

What value of TGI has been reported for the following molecule? CC1CNc2ccccc2N=C1NN (stereo unspecified)
> 100 µM

What value of TGI has been reported for the following molecule? O=C(/C=C/c1ccccc1)/C=N/N1C(=S)N(c2ccccc2)C(=Nc2ccccc2)C1=Nc1ccccc1
> 100 µM

What value of TGI has been reported for the following molecule? CC(C)c1cc(-c2n[nH]c(=O)n2-c2ccc3c(ccn3C)c2)c(O)cc1O
44.3 µM

What value of TGI has been reported for the following molecule? C=CCOc1ccc(/C(N=Nc2ccc(Cl)cc2)=N/NC(=O)c2ccccc2)cc1OC
70.3 µM

What value of TGI has been reported for the following molecule? CCCC1(NC(=O)C(F)(F)F)CC(OC)OC2COC(c3ccccc3)OC21 (stereo unspecified)
> 100 µM

What value of TGI has been reported for the following molecule? C[n+]1c2ccccc2c(C(=O)Nc2ccc(S(=O)(=O)Nc3ccnn3-c3ccccc3)cc2)c2ccccc21
> 100 µM

What value of TGI has been reported for the following molecule? CCN(CC)CCC(=O)c1ccc(Oc2ccc(Cl)cc2)cc1
32.6 µM

What value of TGI has been reported for the following molecule? O=C(O)/C=C\C(=O)N1C/C(=C\c2ccccc2Cl)C(=O)/C(=C/c2ccccc2Cl)C1
4.11 µM

What value of TGI has been reported for the following molecule? N=c1oc2c(Cl)cc(Cl)cc2cc1C(=O)Nc1cccc2ccccc12
> 100 µM

What value of TGI has been reported for the following molecule? Cn1c(=S)[nH]c2sc3c(c2c1=O)CCSC3
> 100 µM

What value of TGI has been reported for the following molecule? CN(CC1(CO)CCC1)c1cc(Cl)nc(N)n1
> 100 µM

What value of TGI has been reported for the following molecule? COc1ccc2c(c1)/C(=C\c1c(C)nc3sccn13)C(=O)N2
> 82.9 µM
